Where do these numbers come from? They come from ChEMBL document CHEMBL3045671.

biological target: Histamine H3 receptor (Cavia porcellus); assay: Antagonist activity at H3 receptor in Cavia porcellus (guinea pig) jejunum assessed as inhibition of electrically evoked muscle contraction; conditions: read-out: pA2 (converted)
Sequence (Q9JI35 whole entry): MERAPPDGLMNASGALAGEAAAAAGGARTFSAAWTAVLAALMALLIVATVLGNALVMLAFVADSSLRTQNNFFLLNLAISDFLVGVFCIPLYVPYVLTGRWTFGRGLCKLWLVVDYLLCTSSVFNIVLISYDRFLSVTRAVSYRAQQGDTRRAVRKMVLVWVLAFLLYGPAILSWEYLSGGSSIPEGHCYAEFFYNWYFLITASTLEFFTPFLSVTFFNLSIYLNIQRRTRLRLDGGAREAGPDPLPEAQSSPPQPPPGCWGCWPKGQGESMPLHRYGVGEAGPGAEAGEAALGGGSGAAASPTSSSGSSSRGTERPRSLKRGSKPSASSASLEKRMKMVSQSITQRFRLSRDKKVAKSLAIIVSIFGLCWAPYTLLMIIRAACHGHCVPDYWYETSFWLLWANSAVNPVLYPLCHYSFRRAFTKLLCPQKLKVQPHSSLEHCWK
Metric: Kb (nM)
Number only, in nM; omit the unit.

Structure	Measured target	Kb (nM)
CCCN1CCN(c2ncc(CCN(C)CCc3ccccc3)s2)CC1	Histamine H3 receptor (Cavia porcellus)	24.5
CCCN1CCN(c2nc(CCN(C)CCc3ccccc3)cs2)CC1	Histamine H3 receptor (Cavia porcellus)	155

Input: # get_value(readout='Kb', item= CCCN1CCN(c2nc(CCN(C)C(=O)c3ccc([N+](=O)[O-])cc3)cs2)CC1 )
Output: 933

###

molecular target: Histamine H3 receptor (Cavia porcellus); assay: Antagonist activity at H3 receptor in Cavia porcellus (guinea pig) jejunum assessed as inhibition of electrically evoked muscle contraction; conditions: read-out: pA2 (converted)
Metric: log10(Kb) (log10 of the value in nM)
Annotation: log10 of Kb, nM basis.

Structure	log10(Kb)
CCCN1CCN(c2ncc(CCN(C)C(=O)c3ccccc3)s2)CC1	1.55
CCCN1CCN(c2nc(CCN(C)C)cs2)CC1	2.24
CCCN1CCN(c2ncc(CCN(C)C(=O)c3ccc([N+](=O)[O-])cc3)s2)CC1	1.24

Input: # log10(Kb) lookup, item CCCN1CCN(c2nc(CCN(C)CCCc3ccccc3)cs2)CC1
Output: 2.39

Input: What does the record list as log10(Kb) for CCCN1CCN(c2ncc(CCN(C)C(=O)c3ccc(Cl)cc3)s2)CC1 ?
Output: 1.27

###

Listing of recorded log10(Kb) by entry.
target: UniProt:Q9JI35; assay: Antagonist activity at H3 receptor in Cavia porcellus (guinea pig) jejunum assessed as inhibition of electrically evoked muscle contraction; settings: read-out: pA2 (converted)
Lab note - Kb converted to log10 from values in µM.

In the examples that follow, each entry is paired with its recorded log10(Kb).
Structure	log10(Kb)
CCCN1CCN(c2nc(CCN(C)C(=O)c3ccccc3)cs2)CC1	0.35
CCCN1CCN(c2nc(CCN(C)Cc3ccccc3)cs2)CC1	-1.12
CCCN1CCN(c2nc(CCN(C)C(=O)c3ccc(Cl)cc3)cs2)CC1	-0.23
CCCN1CCN(c2nc(CCN(C)CCCCCc3ccccc3)cs2)CC1	-0.69
CCCN(C)CCc1csc(N2CCN(CCC)CC2)n1	-0.92
CCCN1CCN(c2nc(CCN(C)CCCCc3ccccc3)cs2)CC1	-0.72
CCCN1CCN(c2nc(CCN(C)C(=O)c3ccc(C)cc3)cs2)CC1	0.20

Kindly consider the entry below.
Input: Entry CCCN1CCN(c2ncc(CCN(C)C(=O)c3ccc(C)cc3)s2)CC1 : reported log10(Kb) = ?
Output: -1.61
